# target-of-assay: ShHTL7 (Striga hermonthica Hyposensitive to Light) (Striga hermonthica, UniProt A0A0M3PNA2)
# Sequence (A0A0M3PNA2 1-271): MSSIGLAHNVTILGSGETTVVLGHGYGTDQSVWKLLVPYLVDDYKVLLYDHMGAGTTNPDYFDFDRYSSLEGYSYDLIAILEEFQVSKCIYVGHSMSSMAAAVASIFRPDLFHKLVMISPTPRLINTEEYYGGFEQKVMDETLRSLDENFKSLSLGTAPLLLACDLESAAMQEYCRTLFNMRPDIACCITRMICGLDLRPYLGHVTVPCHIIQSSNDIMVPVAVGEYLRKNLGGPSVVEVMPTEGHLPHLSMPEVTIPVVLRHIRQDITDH
# assay-method-text: competitive YLG (Yoshimulactone Green) hydrolysis assay with purified protein
# Type: biochemical
# condition: read-out: IC50
quantity: IC50 (µM)
Reply numerically in µM, unit not repeated.

Problem: Fill in: IC50 of CC1=CC(O/C=C(\C(=O)N(C)C)c2ccccc2)OC1=O (stereo not shown) [MP16] is ___
Solution: 4.37
